MEASUREMENT_TARGET: human apelin receptor (Homo sapiens)
Construct: expressed in transfected cells
ASSAY_INFO: Determination of agonism on the human apelin receptor by a calcium fluorescence assay (FLIPR)
Assay type: cell-based
PROTOCOL_CONDITIONS: HEK293 cells stably transfected with human apelin receptor and Giaq protein, Fluo-4 calcium fluorescence, read-out: EC50 (APJ agonism)
pEC50: −log10 of the molar value.
ATTRIBUTE_MEASURED: pEC50

Field: example entries. Status: answers known.
- MOLECULE: "CCC(CC)n1c(Cc2cccs2)nc2cc(C(=O)N[C@@H](CC(C)C)C(=O)O)ccc21"
  pEC50: 6.73
- MOLECULE: "CCC(CC)n1c(Cc2ccsc2)nc2cc(C(=O)N[C@@H](CC(C)C)C(=O)O)ccc21"
  pEC50: 6.38
- MOLECULE: "CCC(CC)n1c(Cc2ccco2)nc2cc(C(=O)NC(C)(Cc3ccccc3)C(=O)O)ccc21 (stereo not shown)"
  pEC50: 4.70

a. CCC(CC)n1c(Cc2ccoc2)nc2cc(C(=O)N[C@H](CC(=O)O)CC(C)C)ccc21
b. CCC(CC)n1c(Cc2cccs2)nc2cc(C(=O)NC(CC3CCCCCC3)C(=O)O)ccc21 (single isomer, unassigned) [Example 449]
Sort a and b by pEC50 descending and give the first. Kindly give the label for the entry you pick.
a

A. CCCCC(NC(=O)c1ccc2c(c1)nc(Cc1cccs1)n2C(CC)CC)C(C)(C)C(=O)O (single isomer, unassigned) [Example 469]
B. CCC(CC)n1c(Cc2cccs2)nc2cc(C(=O)N[C@@H](CC(C)C)C(=O)N3CCN(c4ccccc4OC)CC3)ccc21
Which value of pEC50 is smaller, the one for A or the one for B ? // caller expects the label of the chosen entry
B

I. CCOCCCNC(=O)[C@H](CC(C)C)NC(=O)c1ccc2c(c1)nc(Cc1cccs1)n2C(CC)CC
II. CCC(CC)n1c(Cc2cccs2)nc2cc(C(=O)N[C@@H](CC(C)C)C(=O)NCC3CN(Cc4ccc(F)cc4)CCO3)ccc21 (stereo partly shown)
III. CCC(CC)n1c(Cc2cccs2)nc2cc(C(=O)N[C@@H](CC(C)C)C(=O)N(C)CCc3ccccn3)ccc21
Sort entries by pEC50 from minimum to maximum value. Give the labels in the order requested.
II, I, III

---

MEASUREMENT_TARGET: human apelin receptor (Homo sapiens, UniProt P35414)
Construct: expressed in transfected cells
ASSAY_INFO: Determination of agonism on the human apelin receptor by a calcium fluorescence assay (FLIPR)
Type: cell-based
PROTOCOL_CONDITIONS: HEK293 cells stably transfected with human apelin receptor and Giaq protein, Fluo-4 calcium fluorescence, read-out: EC50 (APJ agonism)
ATTRIBUTE_MEASURED: EC50 (nM)

Use the examples below as a reference point.
- MOLECULE: "CCC(C)Cn1c(Cc2cccs2)nc2cc(C(=O)N[C@@H](CC(C)C)C(=O)O)ccc21 (stereo partly drawn)"
  MEASUREMENT_TARGET: "human apelin receptor (Homo sapiens, UniProt P35414)"
  UNIT_SYMBOL: "nM"
  EC50: 21700
- MOLECULE: "CCC(CC)n1c(Cc2cccs2)nc2cc(C(=O)N[C@@H](CC(C)C)C(=O)N3CCC(N4CCOCC4)CC3)ccc21"
  MEASUREMENT_TARGET: "human apelin receptor (Homo sapiens, UniProt P35414)"
  UNIT_SYMBOL: "nM"
  EC50: 412
- MOLECULE: "CC(C)C[C@H](NC(=O)c1ccc2c(c1)nc(Cc1ccccc1)n2C1CCCCC1)C(=O)O"
  MEASUREMENT_TARGET: "human apelin receptor (Homo sapiens, UniProt P35414)"
  UNIT_SYMBOL: "nM"
  EC50: 15000
- MOLECULE: "CC(C)C[C@H](NC(=O)c1ccc2c(c1)nc(Cc1ccco1)n2C1CCCCC1C)C(=O)O (single isomer, unassigned) [Example 416]"
  MEASUREMENT_TARGET: "human apelin receptor (Homo sapiens, UniProt P35414)"
  UNIT_SYMBOL: "nM"
  EC50: 25
- MOLECULE: "CCC(CC)n1c(Cc2cccs2)nc2cc(C(=O)N[C@@H](CC(C)C)C(=O)NCC3CN(Cc4ccccc4)CCO3)ccc21 (stereo partly drawn)"
  MEASUREMENT_TARGET: "human apelin receptor (Homo sapiens, UniProt P35414)"
  UNIT_SYMBOL: "nM"
  EC50: 2480

P. CCC(CC)n1c(Cc2cccs2)nc2cc(C(=O)NC(CC(C)C)c3cccnc3)ccc21 (stereo not drawn)
Q. CCC(CC)n1c(Cc2cccs2)nc2cc(C(=O)N[C@@H](CC3CC3)C(=O)O)ccc21
Which entry shows the lesser value of EC50 here, P or Q ? Answer by quoting the chosen item's label.
Q

P. CCC(CC)n1c(Cc2cccs2)nc2cc(C(=O)NC(CCc3ccccc3)C(=O)O)ccc21 (stereo not drawn)
Q. CCCC(CO)NC(=O)c1ccc2c(c1)nc(CC1CCCC1)n2C(CC)CC (stereo not drawn)
R. CCC(CC)n1c(Cc2cccs2)nc2cc(C(=O)N[C@@H](CC(C)C)C(=O)N3CCC(N(C)Cc4ccccc4)CC3)ccc21
S. CCC(CC)n1c(Cc2cccs2)nc2cc(C(=O)N[C@@H](CC(C)C)C(=O)N3CC4CC3CN4Cc3ccc(C(F)(F)F)cc3)ccc21 (stereo partly drawn)
T. CCC(CC)n1c(Cc2cccs2)nc2cc(C(=O)N[C@@H](CC(C)C)C(=O)NCCCN3CCN(Cc4ccccc4)CC3)ccc21
# desc sort on EC50 across 5 molecules # list labels per requested ordering
S, P, Q, R, T
(S: 29100 nM, P: 18500 nM, Q: 6950 nM, R: 1670 nM, T: 918 nM)

1. CC(C)Cn1c(CC2CCCCC2)nc2cc(C(=O)N[C@@H](CC3CCCCC3)C(=O)O)ccc21
2. CCC(CC)n1c(Cc2ccco2)nc2cc(C(=O)NC(C)(CCSC)C(=O)O)ccc21 (stereo not drawn)
I need your help: which of the pair 1 , 2 has higher EC50? Your answer should be the label attached to the chosen record.
1
(1: 7150 nM, 2: 1340 nM)

---

MEASUREMENT_TARGET: human apelin receptor (Homo sapiens, UniProt P35414)
Construct: expressed in transfected cells
ASSAY_INFO: Determination of agonism on the human apelin receptor by a calcium fluorescence assay (FLIPR)
Assay type: cell-based
PROTOCOL_CONDITIONS: HEK293 cells stably transfected with human apelin receptor and Giaq protein, Fluo-4 calcium fluorescence, read-out: EC50 (APJ agonism)
pEC50: −log10 of the molar value.
ATTRIBUTE_MEASURED: pEC50

- COMPOUND: "Cc1ccc(-n2c(Cc3cccs3)nc3cc(C(=O)N[C@@H](CC(C)C)C(=O)O)ccc32)cc1 [Example 115]"
  MEASUREMENT_TARGET: "human apelin receptor (Homo sapiens, UniProt P35414)"
  MEASURED_NUMBER: 4.46

I. CCC(CC)n1c(CC2CCCCC2)nc2cc(C(=O)N[C@@H](CC3CCCCC3)C(=O)O)ccc21 [Example 141]
II. C[C@@H]1CCCC[C@H]1n1c(Cc2cccs2)nc2cc(C(=O)NC(CC3CCCCCC3)C(=O)O)ccc21 (stereo partly shown) [Example 40]
III. CCC(CC)n1c(Cc2cccs2)nc2cc(C(=O)N[C@H](CCC(=O)O)CC(C)C)ccc21 [Example 163]
Order the 3 compounds from highest to lowest pEC50. Use the labels to give the ranking in the order requested.
III, II, I
(III: 7.29, II: 6.04, I: 4.64)

---

MEASUREMENT_TARGET: human apelin receptor (Homo sapiens, UniProt P35414)
Construct: expressed in transfected cells
Sequence (P35414 1-380): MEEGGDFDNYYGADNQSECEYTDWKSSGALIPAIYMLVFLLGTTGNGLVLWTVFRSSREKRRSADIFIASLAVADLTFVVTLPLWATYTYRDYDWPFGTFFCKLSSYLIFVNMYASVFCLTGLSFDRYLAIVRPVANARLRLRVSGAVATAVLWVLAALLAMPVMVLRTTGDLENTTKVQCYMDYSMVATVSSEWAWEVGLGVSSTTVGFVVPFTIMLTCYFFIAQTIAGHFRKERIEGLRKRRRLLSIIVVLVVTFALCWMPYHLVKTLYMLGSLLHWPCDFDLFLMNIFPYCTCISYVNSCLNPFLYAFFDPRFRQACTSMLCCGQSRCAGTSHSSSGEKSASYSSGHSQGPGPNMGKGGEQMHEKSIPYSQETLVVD
ASSAY_INFO: Determination of agonism on the human apelin receptor by a calcium fluorescence assay (FLIPR)
Type: cell-based
PROTOCOL_CONDITIONS: HEK293 cells stably transfected with human apelin receptor and Giaq protein, Fluo-4 calcium fluorescence, read-out: EC50 (APJ agonism)
Protocol: Determination of Agonism on the Human Apelin Receptor by a Calcium Fluorescence Assay (FLIPR) The assay is based on the detection of intracellular calcium changes detected by the selective, calcium-chelating dye Fluo-4 (Molecular Probes). A large fluorescence intensity increase is observed upon calcium association with Fluo-4. […] EC-50 values for apelin-13 and the apelin receptor compounds described in this patent were determined by standard algorithms using a specific software package.
pEC50: −log10 of the molar value.
ATTRIBUTE_MEASURED: pEC50

- MOLECULE: "CCC(CC)n1c(Cc2cccs2)nc2cc(C(=O)N[C@@H](CC(C)C)C(=O)NC3CCN(CC4CCCCC4)CC3)ccc21"
  MEASURED_NUMBER: 5.77
- MOLECULE: "CCCC(NC(=O)c1ccc2c(c1)nc(Cc1cccs1)n2C(CC)CC)c1ccccn1 (stereo not shown)"
  MEASURED_NUMBER: 5.57

1. CCC(CC)n1c(Cc2cccs2)nc2cc(C(=O)N[C@@H](CC(C)C)C(=O)N(C)Cc3ccccc3OC)ccc21
2. CCC(CC)n1c(Cc2cccs2)nc2cc(C(=O)N[C@@H](CC(C)C)C(=O)N3CCCC(COC)C3)ccc21 (stereo partly shown)
3. CCC(CC)n1c(Cc2cccs2)nc2cc(C(=O)N[C@@H](CC(C)C)C(=O)NCCCOCc3ccccc3)ccc21
4. CCCCN1CCC(CNC(=O)[C@H](CC(C)C)NC(=O)c2ccc3c(c2)nc(Cc2cccs2)n3C(CC)CC)CC1
5. CCC(CC)n1c(Cc2cccs2)nc2cc(C(=O)N[C@@H](CC(C)C)[C@@H](O)CC(=O)O)ccc21
# rank_down: sort by pEC50, max first Provide the ranking by listing each label in its place in the requested order.
5, 4, 2, 1, 3
(5: 7.18, 4: 6.57, 2: 5.61, 1: 5.23, 3: 4.77)
